These entries and their values trace back to patent US20130296434A1.

- ASSAY_DETAILS: Pharmacokinetics of single rising oral doses of PDS and food effect in healthy male subjects
- Assay type: in vivo, human
- MEASUREMENT_PARAMETERS: male, human, plasma, po, 1600 mg, single oral 1600 mg, Fed (high-fat meal), healthy male subjects, n = 8; mean
- Protocol: In the following examples, terms are as defined below. […] The safety, tolerability and pharmacokinetics of PDS following single oral administration in healthy male adult volunteers is determined. The effect of food on the pharmacokinetics of PDS is also determined. […] Plasma concentrations of PDS are determined using validated HPLC methods. […]
READOUT_KIND: AUC(0-t) (ng·h/mL)
Quick note: give the figure in ng·h/mL, leave out the unit.

Exercise: Quick one: AUC(0-t) of O=S(=O)([O-])CCCS(=O)(=O)[O-].[Na+].[Na+] [PDS] ?
Key: 4010

====

- ASSAY_DETAILS: Pharmacokinetics of single rising oral doses of PDS and food effect in healthy male subjects
- Format: in vivo, human
- MEASUREMENT_PARAMETERS: male, human, plasma, po, 1600 mg, single oral 1600 mg (rising dose part), healthy male subjects, n = 5; median
READOUT_KIND: Tmax (min)
Quick note: give the figure in min, leave out the unit.

Exercise: Quick one: Tmax of O=S(=O)([O-])CCCS(=O)(=O)[O-].[Na+].[Na+] ?
Key: 30

====

- ASSAY_DETAILS: Pharmacokinetics of single rising oral doses of PDS and food effect in healthy male subjects
- Type: in vivo, human
- MEASUREMENT_PARAMETERS: male, human, plasma, po, 800 mg, single oral 800 mg, healthy male subjects, n = 10; mean
READOUT_KIND: Cmax (ng/mL)
Quick note: give the figure in ng/mL, leave out the unit.

Exercise: Quick one: Cmax of O=S(=O)([O-])CCCS(=O)(=O)[O-].[Na+].[Na+] ?
Key: 2870

====

- ASSAY_DETAILS: Pharmacokinetics of PDS after single and multiple oral administration in AA amyloidosis patients
- Type: in vivo
- MEASUREMENT_PARAMETERS: human, plasma, Dose 400 (mg BID), Month 0 single oral dose, n = 2, mean
READOUT_KIND: Tmax
Remember to quote the unit after the number.

Exercise: Quick one: Tmax of O=S(=O)([O-])CCCS(=O)(=O)[O-].[Na+].[Na+] ?
Key: 3 h

====

- ASSAY_DETAILS: Pharmacokinetics of single and repeated oral doses of PDS in healthy male subjects
- Format: in vivo, human
- MEASUREMENT_PARAMETERS: male, human, plasma, po, 800 mg, 800 mg q.i.d., Day 7 (repeated oral administration), n = 6; mean
READOUT_KIND: Cmax (ng/mL)
Quick note: give the figure in ng/mL, leave out the unit.

Exercise: Quick one: Cmax of O=S(=O)([O-])CCCS(=O)(=O)[O-].[Na+].[Na+] ?
Key: 1680

====

- ASSAY_DETAILS: Pharmacokinetics of single and repeated oral doses of PDS in healthy male subjects
- Format: in vivo, human
- MEASUREMENT_PARAMETERS: male, human, plasma, po, 400 mg, 400 mg q.i.d. group, Day 1 (single oral administration), n = 6; median
READOUT_KIND: Tmax (h)
Quick note: give the figure in h, leave out the unit.

Exercise: Quick one: Tmax of O=S(=O)([O-])CCCS(=O)(=O)[O-].[Na+].[Na+] ?
Key: 1

====

- ASSAY_DETAILS: Pharmacokinetics of PDS after single and multiple oral administration in AA amyloidosis patients
- Assay type: in vivo
- MEASUREMENT_PARAMETERS: human, plasma, po, 800 mg, Dose 800 (mg BID), Month 0 single oral dose, n = 5, mean, read-out: AUC(0-12)
READOUT_KIND: AUC(0-t) (ng·h/mL)
Quick note: give the figure in ng·h/mL, leave out the unit.

Exercise: Quick one: AUC(0-t) of O=S(=O)([O-])CCCS(=O)(=O)[O-].[Na+].[Na+] [PDS] ?
Key: 5950

====

- ASSAY_DETAILS: Pharmacokinetics of single and repeated oral doses of PDS in healthy male subjects
- Type: in vivo, human
- MEASUREMENT_PARAMETERS: human, plasma, oral; after single or multiple dosing, 400, 800, 1600 mg, healthy male subjects; range of means; read-out: mean half-life (T1/2)
READOUT_KIND: half-life

Exercise: Quick one: half-life of O=S(=O)([O-])CCCS(=O)(=O)[O-].[Na+].[Na+] ?
Key: 5 to 20 h

====

- ASSAY_DETAILS: Pharmacokinetic profile of a single oral dose of 800 mg PDS in subjects with varying degrees of renal impairment vs healthy volunteers
- Type: in vivo
- MEASUREMENT_PARAMETERS: human, plasma, single oral 800 mg, Mild renal impairment, GFR 50-80 mL/min, n = 6, median
READOUT_KIND: Tmax (min)
Quick note: give the figure in min, leave out the unit.

Exercise: Quick one: Tmax of O=S(=O)([O-])CCCS(=O)(=O)[O-].[Na+].[Na+] ?
Key: 30

====

- ASSAY_DETAILS: Pharmacokinetic profile of a single oral dose of 800 mg PDS in subjects with varying degrees of renal impairment vs healthy volunteers
- Type: in vivo
- MEASUREMENT_PARAMETERS: human, plasma, single oral 800 mg, Moderate renal impairment, GFR 30-50 mL/min, mean, only subjects with estimable elimination rate constant
READOUT_KIND: AUC(0-inf) (ng·h/mL)
Quick note: give the figure in ng·h/mL, leave out the unit.

Exercise: Quick one: AUC(0-inf) of O=S(=O)([O-])CCCS(=O)(=O)[O-].[Na+].[Na+] [PDS] ?
Key: 10700

====

- ASSAY_DETAILS: Pharmacokinetics of single rising oral doses of PDS and food effect in healthy male subjects
- Format: in vivo, human
- MEASUREMENT_PARAMETERS: male, human, plasma, po, 1600 mg, single oral 1600 mg, Fasted, healthy male subjects, n = 8; mean
READOUT_KIND: AUC(0-inf) (ng·h/mL)
Quick note: give the figure in ng·h/mL, leave out the unit.

Exercise: Quick one: AUC(0-inf) of O=S(=O)([O-])CCCS(=O)(=O)[O-].[Na+].[Na+] ?
Key: 12800

====

- ASSAY_DETAILS: Pharmacokinetics of PDS after single and multiple oral administration in AA amyloidosis patients
- Type: in vivo
- MEASUREMENT_PARAMETERS: human, plasma, Dose 800 (mg BID), Month 24 repeated oral doses, n = 4, mean
READOUT_KIND: Tmax (h)
Quick note: give the figure in h, leave out the unit.

Exercise: Quick one: Tmax of O=S(=O)([O-])CCCS(=O)(=O)[O-].[Na+].[Na+] ?
Key: 1.85

====

- ASSAY_DETAILS: Pharmacokinetics of single rising oral doses of PDS and food effect in healthy male subjects
- Assay type: in vivo, human
- MEASUREMENT_PARAMETERS: male, human, plasma, po, 1600 mg, single oral 1600 mg (rising dose part), healthy male subjects, n = 5; mean
READOUT_KIND: AUC(0-t)

Exercise: Quick one: AUC(0-t) of O=S(=O)([O-])CCCS(=O)(=O)[O-].[Na+].[Na+] [PDS] ?
Key: 8410 ng·h/mL

====

- ASSAY_DETAILS: Pharmacokinetics of PDS after single and multiple oral administration in AA amyloidosis patients
- Type: in vivo
- MEASUREMENT_PARAMETERS: human, plasma, po, 800 mg BID, Month 24 repeated oral doses, n = 4, mean, read-out: AUC(0-12)
READOUT_KIND: AUC(0-t)
Remember to quote the unit after the number.

Exercise: Quick one: AUC(0-t) of O=S(=O)([O-])CCCS(=O)(=O)[O-].[Na+].[Na+] ?
Key: 13.7 µg·h/mL

====

- ASSAY_DETAILS: Pharmacokinetics of single and repeated oral doses of PDS in healthy male subjects
- Assay type: in vivo, human
- MEASUREMENT_PARAMETERS: male, human, plasma, po, 1600 mg, 1600 mg t.i.d., Day 7 (repeated oral administration), n = 6; mean
READOUT_KIND: Cmax (ng/mL)
Quick note: give the figure in ng/mL, leave out the unit.

Exercise: Quick one: Cmax of O=S(=O)([O-])CCCS(=O)(=O)[O-].[Na+].[Na+] [PDS] ?
Key: 4890

====

- ASSAY_DETAILS: Pharmacokinetic profile of a single oral dose of 800 mg PDS in subjects with varying degrees of renal impairment vs healthy volunteers
- Assay type: in vivo
- MEASUREMENT_PARAMETERS: human, plasma, single oral 800 mg, Severe renal impairment, GFR <30 mL/min, n = 6, median
READOUT_KIND: Tmax (h)
Quick note: give the figure in h, leave out the unit.

Exercise: Quick one: Tmax of O=S(=O)([O-])CCCS(=O)(=O)[O-].[Na+].[Na+] ?
Key: 2.5
